The origin of these recorded values is paper PMC7941214.

What MIC P. aeruginosa NCTC 13437 was measured for each of the following?
# Test system: P. aeruginosa NCTC 13437
# assay-text: Broth microdilution MIC/MBC, P. aeruginosa
# Format: cell-based, Pseudomonas aeruginosa
# protocol-conditions: value before the parentheses; two values = two repeats

What is its MIC P. aeruginosa NCTC 13437 for P. aeruginosa NCTC 13437? Entry: CC(=O)OCC1O[C@@H]([S][Au-][P+](c2ccc(C(F)(F)F)cc2)(c2ccc(C(F)(F)F)cc2)c2ccc(C(F)(F)F)cc2)C(OC(C)=O)[C@@H](OC(C)=O)[C@@H]1OC(C)=O (stereo partly drawn)
>249 µM

Field: MIC P. aeruginosa NCTC 13437 (P. aeruginosa NCTC 13437). Entry: CC(=O)OCC1O[C@@H]([S][Au-][P+](c2ccc(F)cc2)(c2ccc(F)cc2)c2ccc(F)cc2)C(OC(C)=O)[C@@H](OC(C)=O)[C@@H]1OC(C)=O (stereo partly drawn)
>292 µM

// fetch P. aeruginosa NCTC 13437 MIC P. aeruginosa NCTC 13437 for `CC[PH](CC)(CC)[Au][S]c1ccccc1N`
291 µM
